# reported EC50; entries follow
# Target Under Test: human GPCR sphingosine 1-phosphate receptor 2 (Homo sapiens)
# Construct: host or cells: CHO
# Sequence (O95136 whole entry): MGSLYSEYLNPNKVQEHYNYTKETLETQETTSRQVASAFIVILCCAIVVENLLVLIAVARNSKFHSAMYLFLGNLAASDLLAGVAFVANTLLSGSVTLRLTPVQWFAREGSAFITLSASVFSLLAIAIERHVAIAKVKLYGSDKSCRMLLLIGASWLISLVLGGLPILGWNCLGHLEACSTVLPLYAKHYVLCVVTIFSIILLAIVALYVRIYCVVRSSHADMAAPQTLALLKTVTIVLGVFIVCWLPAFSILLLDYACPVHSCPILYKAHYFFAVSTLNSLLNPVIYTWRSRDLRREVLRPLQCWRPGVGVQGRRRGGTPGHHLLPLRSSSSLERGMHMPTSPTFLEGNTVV
# Measurement Protocol: S1PR2 antagonist Ca2+ flux assay
# Type: cell-based
# Test Context: antagonist mode, CHO-S1PR2 cells, S1P at EC80, Ca2+ fluorescence; read-out: S1P2 EC50 (nM), S1P2 antagonist EC50
// note: answer is a bare numeric in nM

O=C(O)Cn1cc(Cc2nc3cc(Cl)c(OCC(F)F)cc3[nH]2)c2ccccc2c1=O ... 24.4
N#Cc1cc2[nH]c(Cc3nn(CC(=O)N4CCC(O)(C5CC5)C4)c(=O)c4ccccc34)nc2cc1OCC(F)F (stereo not shown) ... 34.6
CC(C(=O)O)n1nc(Cc2cn3cc(OCC4CC4)c(Cl)cc3n2)c2ccccc2c1=O (stereo not shown) ... 12.7

Prompt line: Please look up its EC50: COCCOc1cc2nc(Cc3nn(C4CCNC4)c(=O)c4ccccc34)[nH]c2cc1C#N (stereo not shown)
Response line: 2080
